Biological target: G12C-mutant human KRAS (amino acid residues 1-188) (Homo sapiens, UniProt P01116, G12C)
Construct: G12D or G12C-mutant human KRAS (amino acid residues 1-188) with FLAG tag; made in house; host or cells: E. coli
Assay: KRAS Binding Disruption Assay (AlphaScreen; biotinylated KRpep-2d analogue or RAF1-RBD), G12C
Settings: geometric mean, read-out: KRAS GMean IC50 (uM) MUTATION: G12C
Each entry below carries its reported IC50.

Sample records with IC50:
Oc1cc(-c2ccc3c(N4C[C@H]5CC[C@@H](C4)N5)nc(OC[C@@H]4CCCN4)nc3c2F)c2ccccc2c1    10 to 100 µM
N#CCC(=O)N1[C@@H]2CC[C@H]1CN(c1nc(OCC34CCCN3CCC4)nc3c(F)c(-c4cc(O)cc5ccccc45)ccc13)C2    0.0001 to 10 µM
FC(F)(F)c1cccc2[nH]cc(-c3ccc4c(N5C[C@H]6CC[C@@H](C5)N6)nc(OCC56CCCN5CCC6)nc4c3)c12    0.0001 to 10 µM
Oc1cc(-c2ccc3c(N4C[C@H]5CC[C@@H](C4)N5)nc(OCc4cnco4)nc3c2F)c2ccccc2c1    10 to 100 µM
CN(C)C(=O)CCNc1nc(N2C[C@H]3CC[C@@H](C2)N3)c2ccc(-c3cc(O)cc4ccccc34)cc2n1    10 to 100 µM
Cc1ncoc1COc1nc(N2C[C@H]3CC[C@@H](C2)N3)c2ccc(-c3cc(O)cc4ccccc34)c(F)c2n1    10 to 100 µM

Attention now turns to another entry.
The compound `Cn1cncc1COc1nc(N2C[C@H]3CC[C@@H](C2)N3)c2ccc(-c3cc(O)cc4ccccc34)c(F)c2n1` , tested on G12C-mutant human KRAS (amino acid residues 1-188) (Homo sapiens, UniProt P01116, G12C), showed IC50 of 0.0001 to 10 µM

====

Biological target: G12V-mutant human KRAS (amino acid residues 1-188) (Homo sapiens, UniProt P01116, G12V)
Construct: G12V-mutant human KRAS (amino acid residues 1-188) with FLAG tag was purified from E. coli; made in house; host or cells: E. coli
Assay: KRAS Binding Competition Assay (AlphaScreen; biotinylated KRpep-2d analogue), G12V
Conditions: geometric mean, read-out: KRAS GMean IC50 (uM) MUTATION: G12V
measurement label: IC50

What the record says about `Cc1cccc2cc(O)cc(-c3c(F)cc4c(N5C[C@H]6CC[C@@H](C5)N6)nc(OCC56CCCN5CCC6)nc4c3F)c12` : IC50 is 0.0001 to 10 µM

What the record says about `CN1CCC[C@H]1COc1nc(N2[C@@H]3CC[C@H]2CN(C(=O)CS(N)(=O)=O)C3)c2ccc(-c3cc(O)cc4ccccc34)cc2n1` : IC50 is 10 to 100 µM

What the record says about `CN1CCC[C@H]1COc1nc(N2[C@@H]3CC[C@H]2CN(C(=O)CNC(N)=O)C3)c2ccc(-c3cc(O)cc4ccccc34)cc2n1` : IC50 is 10 to 100 µM

What the record says about CN1CCC[C@H]1COc1nc(N2CC3CCC2CN3)c2ccc(-c3cc(O)cc4ccccc34)cc2n1 (some centres unmarked) : IC50 is 10 to 100 µM

What the record says about `CN(C)CC(=O)N1[C@@H]2CC[C@H]1CN(c1nc(OCC34CCCN3CCC4)nc3cc(-c4cc(O)cc5ccccc45)ccc13)C2` : IC50 is 0.0001 to 10 µM

====

Each entry below carries its reported IC50.
Target: G12V-mutant human KRAS (amino acid residues 1-188) (Homo sapiens, UniProt P01116, G12V)
Construct: G12V-mutant human KRAS (amino acid residues 1-188) with FLAG tag was purified from E. coli; made in house; host or cells: E. coli
Experiment: KRAS Binding Competition Assay (AlphaScreen; biotinylated KRpep-2d analogue), G12V
Conditions: geometric mean, read-out: KRAS GMean IC50 (uM) MUTATION: G12V

Sample records with IC50:
CN1CCC[C@H]1COc1nc(N2C[C@H]3CC[C@@H](C2)N3)c2ccc(-c3ccc4c(c3)NCCO4)cc2n1 [P-0173]    10 to 100 µM
CN(C)c1cccc(COc2nc(N3C[C@H]4CC[C@@H](C3)N4)c3cc(Cl)c(-c4c(O)cccc4F)c(F)c3n2)c1 [P-0364]    0.0001 to 10 µM
O=C1N=C(S)SC1CC(=O)N1[C@@H]2CC[C@H]1CN(c1nc(OCC34CCCN3CCC4)nc3c(F)c(-c4cc(O)cc5ccccc45)ccc13)C2 (some centres unmarked) [P-0411]    0.0001 to 10 µM
OCc1nc(N2C[C@H]3CC[C@@H](C2)N3)c2cc(Cl)c(-c3c(O)cccc3F)c(F)c2n1 [P-0456]    10 to 100 µM
Oc1cc(-c2ccc3c(N4C[C@H]5CC[C@@H](C4)N5)nc(OCC45CCCN4CCC5)nc3c2F)c2c(Cl)cccc2c1 [P-0136]    0.0001 to 10 µM

Attention now turns to another entry.
What the record says about CNC(=O)CCOc1nc(N2C[C@H]3CC[C@@H](C2)N3)c2ccc(-c3cc(O)cc4ccccc34)c(F)c2n1 [P-0616] : IC50 is 10 to 100 µM

====

Target: G12V-mutant human KRAS (amino acid residues 1-188) (Homo sapiens, UniProt P01116, G12V)
Construct: G12V-mutant human KRAS (amino acid residues 1-188) with FLAG tag was purified from E. coli; made in house; host or cells: E. coli
Experiment: KRAS Binding Competition Assay (AlphaScreen; biotinylated KRpep-2d analogue), G12V
Settings: geometric mean, read-out: KRAS GMean IC50 (uM) MUTATION: G12V
measurement label: IC50

Sample records with IC50:
Oc1cc(-c2c(F)cc3c(N4C[C@H]5CC[C@@H](C4)N5)nc(OCC45CCCN4CCC5)nc3c2F)c2c(Cl)cccc2c1    0.0001 to 10 µM
CN1CCC[C@H]1COc1nc(N2[C@@H]3CC[C@H]2CN(C(=O)C2CCC(=O)N2)C3)c2ccc(-c3cc(O)cc4ccccc34)cc2n1 (some centres unmarked)    100 to 1000 µM
CN1CCC[C@H]1COc1nc(N2[C@@H]3CC[C@H]2CN(C(=O)CNS(N)(=O)=O)C3)c2ccc(-c3cc(O)cc4ccccc34)cc2n1    10 to 100 µM
CC(=O)Nc1cncc(-c2ccc3c(N4C[C@H]5CC[C@@H](C4)N5)nc(OC[C@@H]4CCCN4C)nc3c2)c1    100 to 1000 µM
CN1CCC[C@H]1COc1nc(N2CC3CCC(C2)N3)c2ccc(-c3cccc(NS(C)(=O)=O)c3)cc2n1    100 to 1000 µM
CN1CC[C@@H](NC(=O)N2[C@@H]3CC[C@H]2CN(c2nc(OCC45CCCN4CCC5)nc4cc(-c5cc(O)cc6ccccc56)ccc24)C3)C1    0.0001 to 10 µM

What the record says about `CN1CCC[C@H]1COc1nc(N2[C@@H]3CC[C@H]2CNC3)c2ccc(-c3c(O)ccc4ccccc34)cc2n1` : IC50 is 10 to 100 µM

What the record says about `CN1CCC[C@H]1COc1nc(N2C[C@H]3CC[C@@H](C2)N3CC(=O)Nc2ccccn2)c2ccc(-c3cc(O)cc4ccccc34)c(F)c2n1` : IC50 is 10 to 100 µM

What the record says about `Fc1c(-c2c[nH]c3ccc(Cl)c(F)c23)c(Cl)cc2c(N3C[C@H]4CC[C@@H](C3)N4)nc(OCC34CCCN3CCC4)nc12` : IC50 is 10 to 100 µM

What the record says about `O=C(c1c[nH]c(=O)[nH]c1=O)N1[C@@H]2CC[C@H]1CN(c1nc(OCC34CCCN3CCC4)nc3cc(-c4cc(O)cc5ccccc45)ccc13)C2` : IC50 is 0.0001 to 10 µM

What the record says about `CNCC(=O)N1C[C@H]2CC[C@@H](C1)N2c1nc(OC[C@@H]2CCCN2C)nc2cc(-c3cc(O)cc4ccccc34)ccc12` : IC50 is 10 to 100 µM

What the record says about `CN1CCC[C@H]1COc1nc(N2[C@@H]3CC[C@H]2CN(C(=O)CC(C)(C)O)C3)c2ccc(-c3cc(O)cc4ccccc34)cc2n1` : IC50 is 10 to 100 µM

What the record says about `CN(C)C(=O)CCc1nc(N2[C@@H]3CC[C@H]2CNC3)c2ccc(-c3cc(O)cc4ccccc34)cc2n1` : IC50 is 10 to 100 µM

What the record says about `Fc1c(-c2c[nH]c3ccc(C(F)(F)F)cc23)ccc2c(N3C[C@H]4CC[C@@H](C3)N4)nc(OCC34CCCN3CCC4)nc12` : IC50 is 100 to 1000 µM

What the record says about `CN1CCC[C@H]1COc1nc(N2C[C@H]3CC[C@@H](C2)N3CC(=O)N2CCOCC2)c2ccc(-c3cc(O)cc4ccccc34)c(F)c2n1` : IC50 is 100 to 1000 µM

What the record says about `O=C(NC1CNC1)N1[C@@H]2CC[C@H]1CN(c1nc(OCC34CCCN3CCC4)nc3cc(-c4cc(O)cc5ccccc45)ccc13)C2` : IC50 is 0.0001 to 10 µM
